assay: Clearance in Sprague-Dawley rat at 1 mg/kg, iv administered as single dose by LC-MS/MS method; format: ADME, organism-based; details: in vivo
Parameter measured: clearance (mL/min/kg)
Kindly answer with a numeric value in mL/min/kg, unit omitted.

Request: Write down clearance measured for item CNCCN(C)Cc1c[nH]nc1-c1ccc(O[C@H]2C[C@H](OCCC3CCOCC3)C2)cc1
Response: 19.7

###

IC50 data for Protein arginine N-methyltransferase 8 (Homo sapiens, UniProt Q9NR22) follow.

Request: Provide IC50, recorded with Protein arginine N-methyltransferase 8 (Homo sapiens, UniProt Q9NR22), of CNCCN(C)Cc1n[nH]cc1-c1ccc(Oc2cccc(C(=O)N(C)C)c2)cc1
Sequence (Q9NR22 whole entry): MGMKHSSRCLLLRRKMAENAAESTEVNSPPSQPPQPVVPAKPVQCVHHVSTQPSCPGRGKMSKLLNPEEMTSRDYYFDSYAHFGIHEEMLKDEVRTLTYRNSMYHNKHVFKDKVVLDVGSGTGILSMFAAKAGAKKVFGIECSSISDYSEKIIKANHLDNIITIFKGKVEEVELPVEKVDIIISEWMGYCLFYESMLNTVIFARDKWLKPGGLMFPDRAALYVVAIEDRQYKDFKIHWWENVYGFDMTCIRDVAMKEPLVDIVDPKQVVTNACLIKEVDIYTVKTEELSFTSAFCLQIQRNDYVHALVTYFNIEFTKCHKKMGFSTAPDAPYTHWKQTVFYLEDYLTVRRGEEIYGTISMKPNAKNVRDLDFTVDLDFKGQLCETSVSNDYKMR
Response: 347 nM

---
Request: // fetch IC50 for CNCCN(C)Cc1n[nH]cc1-c1ccc(Oc2ccccc2C(=O)NC)cc1 ; system: Protein arginine N-methyltransferase 8 (Homo sapiens, UniProt Q9NR22)
Response: 65 nM
